target: T1, recombinant memapsin 2 (M2pd), auto-activated from pro-M2pd at pH 4.0 (human, UniProt P56817 25-419, limits assumed); test: enzyme inhibition with a synthetic fluorogenic peptide substrate
T1 construct: also called beta-secretase
T1 sequence (P56817 25-419 limits assumed): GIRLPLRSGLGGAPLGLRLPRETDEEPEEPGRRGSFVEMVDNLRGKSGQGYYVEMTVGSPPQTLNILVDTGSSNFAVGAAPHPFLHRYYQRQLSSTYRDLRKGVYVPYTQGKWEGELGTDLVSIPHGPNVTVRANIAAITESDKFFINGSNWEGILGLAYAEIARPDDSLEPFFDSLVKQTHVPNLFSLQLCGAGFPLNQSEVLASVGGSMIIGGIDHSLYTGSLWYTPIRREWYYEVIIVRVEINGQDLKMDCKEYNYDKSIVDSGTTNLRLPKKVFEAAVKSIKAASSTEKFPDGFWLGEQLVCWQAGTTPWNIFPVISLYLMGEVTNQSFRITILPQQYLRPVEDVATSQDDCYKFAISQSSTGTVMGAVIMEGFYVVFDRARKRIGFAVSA
Where no end group is shown, it is not given here.
endpoint name: Ki (nM)
One number for each entry, in nM.

Quick note, Ki for VNLAAEF (also: Leu-Ala peptide bond replaced by hydroxyethylene isostere -CH(OH)-CH2-, also called OMR99-1) [OM99-1: Val-Asn-Leu*Ala-Ala-Glu-Phe] landed at 30

The reported numbers originate from patent US20020049303A1.
